assay: Cytotoxicity against human HMEC1 cells after 72 hrs by MTT assay; type: cell-based; settings: HMEC-1, 72 h
measured-quantity: pIC50
Note on pIC50: it is the negative log10 of concentration, concentration in mol/L.

Below, each entry is followed by its recorded pIC50 result.
CCCCC1(CCCC)C[C@H](C(=O)OC)[C@@](C)(OC)OO1 (mixture of isomers): 4.01
CCCC[C@@]1(C)C[C@H](C(=O)OC)[C@](CCCC)(OC)OO1 (mixture of isomers): 3.78

Please look at this compound and report its pIC50: CCCCC1(CCCC)C[C@H](C(=O)OC)[C@](CCCC)(OC)OO1 (mixture of isomers)
3.97

====

tested on: Plasmodium falciparum; assay: Antimalarial activity against chloroquine-resistant Plasmodium falciparum W2 infected in human type A-positive red blood cells assessed as parasite lactate dehydrogenase activity after 72 hrs by spectrophotometric analysis; assay type: functional, organism-based; conditions: W2, 72 h
One threshold, 1000 nM, splits the recorded IC50 values: lower ones are 1 (yes), equal or higher ones are 0 (no).

A selection of reference data follows.
CC[C@@]1(OC)OOC(C)(C)C[C@@H]1C(=O)OC (mixture of isomers): 0 (no)
CCCC[C@]1(C)C[C@H](C(=O)OC)[C@@](CCCC)(OC)OO1 (mixture of isomers): 0 (no)
CCCC[C@@]1(C)C[C@H](C(=O)OC)[C@](CCCC)(OC)OO1 (mixture of isomers): 0 (no)
CCCC[C@]1(C)C[C@H](C(=O)OC)[C@](C)(OC)OO1 (mixture of isomers): 0 (no)
CC/C=C/[C@H](CC)C[C@@]1(C)C[C@@H](CC)[C@@H](CC(=O)OC)OO1 [PLAKORTIN]: 1 (yes)
CCCCC1(CCCC)C[C@H](C(=O)OC)[C@@](C)(OC)OO1 (mixture of isomers): 1 (yes)

For the next question, use this molecule.
Does the reported IC50 of CCCC[C@]1(C)C[C@H](C(=O)OC)[C@](CCCC)(OC)OO1 (mixture of isomers) stay below 1000 nM?
0 (no)
